- STUDY SYSTEM: Caspase-1 (Homo sapiens, UniProt P29466)
- Sequence (P29466 120-297 limits assumed): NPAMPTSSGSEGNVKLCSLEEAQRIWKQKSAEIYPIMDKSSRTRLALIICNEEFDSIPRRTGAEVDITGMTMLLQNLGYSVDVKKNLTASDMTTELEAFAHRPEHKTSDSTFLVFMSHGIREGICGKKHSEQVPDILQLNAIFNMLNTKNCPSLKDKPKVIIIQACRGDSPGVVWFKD
- Sequence (P29466 317-404 limits assumed): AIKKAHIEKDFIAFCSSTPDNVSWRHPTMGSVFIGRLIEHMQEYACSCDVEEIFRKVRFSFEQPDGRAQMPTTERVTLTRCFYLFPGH
- TEST SUMMARY: Caspase-1 enzyme inhibition (Ki)
- Assay type: biochemical
- TEST PARAMETERS: substrate Suc-YVAD-pNA 80 μM, 37° C., pH 7.5
pKi: −log10 of the molar value.
In this section we review reported pKi values for a set of compounds.

Observe how each entry below is paired with its result.
1. COc1ccc(C(=O)N[C@@H](C)C(=O)N2CCC[C@H]2C(=O)N[C@H](C=O)CC(=O)O)cc1F = 6.00 to 8.00
2. CC(C)[C@H](NC(=O)c1c(-c2ccccc2)nnc2ccccc12)C(=O)N1CCC[C@H]1C(=O)N[C@H](C=O)CC(=O)O = 6.00 to 8.00
3. Cc1nc(C)c(C(=O)N[C@@H](C)C(=O)N2CCC[C@H]2C(=O)N[C@H](C=O)CC(=O)O)s1 = 6.00 to 8.00
4. CC(=O)N1CCN(C(=O)[C@@H](NC(=O)c2nccc3ccccc23)C(C)C)[C@H](C(=O)N[C@H](C=O)CC(=O)O)C1 [Example 17e] = 6.00 to 8.00
5. C[C@H](NC(=O)c1cc(Cl)c(O)c(Cl)c1)C(=O)N1CCC[C@H]1C(=O)N[C@H](C=O)CC(=O)O [Example 122k] = > 8.00

# pKi lookup, item CC(C)[C@H](NC(=O)c1cc2ccccc2[nH]1)C(=O)N[C@@H](C)C(=O)N[C@H](C=O)CC(=O)O [Example 29i]
> 8.00

# pKi lookup, item CC(C)[C@H](NC(=O)c1nccc2ccccc12)C(=O)N1C[C@H](NS(C)(=O)=O)C[C@H]1C(=O)N[C@H](C=O)CC(=O)O
> 8.00

# pKi lookup, item COc1c(Cl)cc(C(=O)N[C@@H](C)C(=O)N2CC(F)(F)C[C@H]2C(=O)N[C@H](C=O)CC(=O)O)cc1Cl [Example 27h]
6.00 to 8.00

# pKi lookup, item CC(C)C[C@@H](C(=O)N[C@H](C=O)CC(=O)O)N1CC[C@@H](NC(=O)c2nccc3ccccc23)C1=O [Example 32a]
< 6.00

# pKi lookup, item COC(=O)N[C@@H]1C[C@@H](C(=O)N[C@H](C=O)CC(=O)O)N(C(=O)[C@@H](NC(=O)c2ccc(OC)cc2)C(C)C)C1
> 8.00

# pKi lookup, item CC(C)[C@H](NC(=O)c1cccc(C(=O)c2ccccc2)c1)C(=O)N1CCC[C@H]1C(=O)N[C@H](C=O)CC(=O)O
> 8.00

# pKi lookup, item CC(C)[C@H](NC(=O)c1nccc2ccccc12)C(=O)N1C2CCCCC2C[C@H]1C(=O)N[C@H](C=O)CC(=O)O (some centres unmarked) [Example 26e]
> 8.00

# pKi lookup, item CC(C)C(NC(=O)c1ccc(N)c(Cl)c1)C(=O)N1CCCC1C(=O)NC(C=O)CC(=O)O (centres unmarked)
> 8.00

# pKi lookup, item C[C@H](NC(=O)c1nccc2ccccc12)C(=O)N1CC(F)(F)C[C@H]1C(=O)N[C@H](C=O)CC(=O)O [Example 27l]
6.00 to 8.00
